# System: HOP-62 NSCLC
# MEASUREMENT_NOTES: NCI tumour cell line growth inhibition, 48 h
The entries below come with measured TGI values attached.

Below: 5 compounds and their reported TGI.
INSERT INTO assay_data (compound, observed_value) VALUES
  ('COc1ccc(C2=Nc3ccccc3SC(C)C2)cc1 (centres undefined)', '> 100 µM'),
  ('Cc1ccc(C2CC(c3ccc([N+](=O)[O-])cc3)=Nc3ccccc3S2)cc1 (centres undefined)', '> 100 µM'),
  ('COc1cc(C2S/C(=C/c3ccccc3)C(=O)N2c2cc(Cl)ccc2Cl)cc(OC)c1OC (centres undefined)', '> 100 µM'),
  ('OC(CC(CC(O)(C(F)(F)Cl)C(F)(F)Cl)=NNc1ccccc1)(C(F)(F)Cl)C(F)(F)Cl', '7.95 µM'),
  ('CN(C)CCNc1ccc2ncnc3c2c1C(=O)c1ccccc1-3', '3.25 µM');

Using the record for COc1ccc(-c2cc(-c3ccc(Cl)cc3)n(C3OC(CO)C(O)C(O)C3O)c(=S)c2C#N)cc1 (centres undefined) , report its TGI.
> 100 µM

====

Property: TGI; scope: individual compounds
# Test system: UO-31 renal
# MEASUREMENT_NOTES: NCI tumour cell line growth inhibition, 48 h

INSERT INTO assay_data (entry_smiles, observed_value) VALUES
  ('CN1CCN(CCCOc2cccc3nc(Nc4ccc(Cl)c(F)c4)ccc23)CC1', '3.32 µM'),
  ('CN(CCC#N)c1ccc(/C=C(\C#N)c2cccc(C(F)(F)F)c2)cc1', '> 100 µM'),
  ('Cc1ccc(NC(=O)CC/C(CC(=O)C(C)(C)C)=N/NC(=O)C(N)=O)cc1C', '> 100 µM');

Lab request: please report TGI under test system UO-31 renal for "Cc1cccc2[nH]c3cc(O)cc(O)c3c(=O)c12"
> 10 µM

====

Recorded TGI by entry
# Test system: SK-MEL-28 melanoma
# MEASUREMENT_NOTES: NCI tumour cell line growth inhibition, 48 h

Some molecules with recorded TGI:
INSERT INTO assay_data (molecule, system_name, observed_value) VALUES
  ('C=C(C)[C@@H]1C[C@H]2O[C@](O)(C(=C)CC(=O)/C=C(/C)C[C@@H]3OC(=O)[C@]24O[C@@H]34)[C@H]1O', 'SK-MEL-28 melanoma', '> 100 µM'),
  ('Cn1cc(C2=C(c3c4n(c5ccccc35)CCCC4)C(=O)NC2=O)c2ccccc21', 'SK-MEL-28 melanoma', '> 25 µM'),
  ('CC(=O)[CH-]C(=O)c1ccccc1.CC(=O)[CH-]C(=O)c1ccccc1.COc1cccc([O-])c1[O-].[Ti+4]', 'SK-MEL-28 melanoma', '> 100 µM'),
  ('Cn1c(NN)nc(-c2ccc([N+](=O)[O-])cc2)c(C#N)c1=O', 'SK-MEL-28 melanoma', '25 µM'),
  ('COc1ccc(-c2nn(-c3ccc(NC(=O)c4ccc(Cl)c(C(F)(F)F)c4)cc3)cc2-c2ccncc2)cc1Cl', 'SK-MEL-28 melanoma', '> 100 µM'),
  ('COC1C(O)C(C)OC(OC2C(Oc3cccc4c(O)c5c(=O)oc6ccc(C)c7c(=O)oc(c34)c5c67)OC(C)C3O[C@H](c4ccccc4)OC32)C1O (stereo partly drawn)', 'SK-MEL-28 melanoma', '3.92 µM');

Notebook entry, SK-MEL-28 melanoma assay: TGI of Cc1cccc(-n2c(C)nc3ccc(NC4OC(CO)C(O)C(O)C4O)cc3c2=O)c1 (stereo not drawn) = ?
> 100 µM

Test system SK-MEL-28 melanoma; read-out TGI; what value for "CN(CCC#N)c1ccc(/C=C(\C#N)c2cccc(C(F)(F)F)c2)cc1" ?
> 100 µM

====

# Tested on: NCI/ADR-RES ovarian
# MEASUREMENT_NOTES: NCI tumour cell line growth inhibition, 48 h
MEASURED_ENDPOINT: GI50

Below are worked cases with known answers.
INSERT INTO results (entry_smiles, measured_endpoint, observed_value) VALUES
  ('CN(CCC#N)c1ccc(/C=C(\C#N)c2cccc(C(F)(F)F)c2)cc1', 'GI50', '3680 nM'),
  ('O=[N+]([O-])c1cc([N+](=O)[O-])c(Cl)c(Cl)c1Cl', 'GI50', '2870 nM'),
  ('CN(Cc1cnc(N)nc1N)c1ccc(C(=O)O)cc1', 'GI50', '> 100000 nM'),
  ('C=CCn1c(=O)c2cnc(Nc3ccc(N4CCN(C)CC4)cc3)nc2n1-c1ccc2c(n1)[C@@](O)(CC)CC2', 'GI50', '5690 nM'),
  ('COc1ccc(Cl)cc1Nc1nc(C(F)(F)F)ccc1C(=O)N/N=C/c1ccc([N+](=O)[O-])cc1', 'GI50', '2250 nM');

Given "CC[C@@]1(OC(=O)CN)C(=O)OCc2c1cc1n(c2=O)Cc2cc3cc4c(cc3nc2-1)OCO4" , state its recorded GI50.
< 10 nM

Name the reported GI50 value associated with the compound "CN1CCN(CCCOc2cccc3nc(Nc4ccc(Cl)c(F)c4)ccc23)CC1"
1800 nM

Fill blank: measured GI50 of the compound "CC1=CC[C@@H]2C(C)(C)C(=O)CC[C@@]2(C)[C@@H]1COc1ccc2ccc(=O)oc2c1" is ____.
4060 nM

// GI50 lookup, key: "O=S(=O)(Nc1cc(Br)c(O)c2ccccc12)c1ccc(F)cc1"
2960 nM

====

# Tested on: COLO 205 colon
# MEASUREMENT_NOTES: NCI tumour cell line growth inhibition, 48 h
MEASURED_ENDPOINT: TGI

Use the examples below as a reference point.
INSERT INTO results (compound, observed_value) VALUES
  ('CC1=CC[C@@H]2C(C)(C)C(=O)CC[C@@]2(C)[C@@H]1COc1ccc2ccc(=O)oc2c1', '39.4 µM'),
  ('COc1c(C2=NC(C(C)C)CO2)ccc2ccccc12 (stereo not given)', '> 100 µM'),
  ('O=C(COc1ccc(/C=C2\Oc3ccccc3C2=O)cc1)Nc1nccs1', '> 100 µM'),
  ('COc1ccc(C2=C(Cl)c3cc(OC)c(OC)cc3C2=O)cc1OC', '16.2 µM'),
  ('Cc1cc(=O)n(-c2ccccc2)c(=O)o1', '> 100 µM'),
  ('Cc1nc2ccccc2c(=O)n1-c1n[nH]c2ccccc12', '> 100 µM'),
  ('[C-]#[O+].[Cl][Sn]([Cl])[Cl].[Cl][Sn]([Cl])[Cl].[Pt].c1ccc([PH+](c2ccccc2)c2ccccc2)cc1.c1ccc([PH+](c2ccccc2)c2ccccc2)cc1', '> 100 µM'),
  ('Nc1ncnc2c1ncn2C1OC(CSC(F)(F)F)C(O)C1O (stereo not given)', '> 100 µM'),
  ('CN(Cc1cnc(N)nc1N)c1ccc(C(=O)O)cc1', '> 100 µM');

Query compound follows.
What measured TGI is associated with "c1cc(-c2csc(-c3ccsc3)c2)cs1" on COLO 205 colon?
> 100 µM

====

# Tested on: SNB-19 CNS
# MEASUREMENT_NOTES: NCI tumour cell line growth inhibition, 48 h
MEASURED_ENDPOINT: TGI

Answered cases to consult:
INSERT INTO measurements (entry_smiles, observed_value) VALUES
  ('Cc1c(/C=N/NC(=S)Nc2cccc(Cl)c2)c(=O)n(-c2ccccc2)n1C', '37.1 µM'),
  ('NC(=O)c1cc(-c2ccc(-n3ccnc3)cc2)n[nH]c1=O', '> 100 µM'),
  ('COc1ccc(OC)c([N+](=O)[O-])c1-c1nc2sccn2c1/C=N/N=C(N)N', '> 100 µM'),
  ('CC1C2=C(CC(C)(C)CC2=O)NC2=C1C(=O)CC(C)(C)C2', '> 100 µM'),
  ('Cc1oc2nc[nH]c(=O)c2c1C(=O)/C=C/c1ccc(Cl)cc1', '13.7 µM');

GET /values?readout=TGI&item= "Cc1nc2ccccc2c(=O)n1/N=C(\N=Nc1cc(Cl)ccc1Cl)c1cccc(-c2ccco2)c1"
> 100 µM

Item under review: "COC(=O)[C@H]1[C@H]2C[C@@H]3c4[nH]c5cc(OC)ccc5c4CCN3C[C@H]2C[C@@H](OC(=O)c2cc(OC)c(OC)c(OC)c2)[C@@H]1OC" . Reported TGI?
41 µM

Need TGI, item "N#CC(C#N)=Cc1c(-c2ccccc2)[nH]c2ccccc12"
> 100 µM

Entry "Cc1ccc(NC(=O)CC/C(CC(=O)C(C)(C)C)=N/NC(=O)C(N)=O)cc1C" : reported TGI = ?
> 100 µM

====

Measured TGI values are reported for all entries that follow.
# System: SNB-19 CNS
# MEASUREMENT_NOTES: NCI tumour cell line growth inhibition, 48 h
// return numeric value only (unit: µM, not printed)

Example entries begin here.
INSERT INTO results (entry_smiles, observed_value) VALUES
  ('O=S(=O)(C(=Ic1ccccc1)S(=O)(=O)C(F)(F)C(F)(F)C(F)(F)C(F)(F)F)C(F)(F)C(F)(F)C(F)(F)C(F)(F)F', 28.5),
  ('O=C(O)c1nc2cc(C(F)(F)F)ccc2nc1Nc1ccc(Cl)c(Cl)c1', 53.5),
  ('CCCCCCCC(=O)OC[C@@H](C[As](=O)(O)O)OC(=O)CCCCCCC', 27.3);

For the next question, use this molecule.
What value of measured TGI is listed for "COc1ccc(Cl)cc1Nc1nc(C(F)(F)F)ccc1C(=O)N/N=C/c1ccc([N+](=O)[O-])cc1" ?
13

All values here come from PubChem BioAssay (NCI).
